Catalogue of koff readings, one per entry.
Molecular target: T1, human FLT3 (hFLT3) (human, UniProt P36888 27-543)
T1 construct: also called huFlt3; Fms-Like Tyrosine Kinase 3
T1 sequence (looked up): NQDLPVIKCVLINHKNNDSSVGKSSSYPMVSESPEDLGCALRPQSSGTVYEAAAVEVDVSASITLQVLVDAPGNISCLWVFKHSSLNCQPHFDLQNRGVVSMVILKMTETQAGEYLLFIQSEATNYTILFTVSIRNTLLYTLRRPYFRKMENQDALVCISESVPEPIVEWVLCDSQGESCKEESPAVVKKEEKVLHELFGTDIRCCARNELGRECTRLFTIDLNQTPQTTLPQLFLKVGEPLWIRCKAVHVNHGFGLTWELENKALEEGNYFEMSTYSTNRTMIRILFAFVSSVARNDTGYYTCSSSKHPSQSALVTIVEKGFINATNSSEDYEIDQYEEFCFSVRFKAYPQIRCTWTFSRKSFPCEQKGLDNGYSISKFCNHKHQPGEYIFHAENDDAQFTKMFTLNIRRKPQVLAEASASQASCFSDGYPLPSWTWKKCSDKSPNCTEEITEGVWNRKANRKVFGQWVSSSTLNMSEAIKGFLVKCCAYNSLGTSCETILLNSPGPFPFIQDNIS
Test: SPR (Biacore T200), 37 C; IgG captured on anti-human Fc, hFLT3 as analyte
Express it in s⁻¹; write the number only.

[ask] # lookup: koff of P4C7 (IgG format) (antibody, V domains shown, IgG format, captured by anti-human Fc) VH: QVQLVQSGAEVKKPGSSVKVSCKASGGTFSSYTISWVRQAPGQGLEWMGGIIPAFGIANYAQKFQGRVTITADKSTSTAYMELSSLRSEDTAVYYCAKGGSYSLDYFDIWGQGTLVTVSS VL: EIVLTQSPGTLSLSPGERATLSCRASQYVSASLLAWYQQKPGQAPRLLIYGASTRATGIPDRFSGSGSGTDFTLTISRLEPEDFAVYYCQQYARSSTFGQGTKVEIK
[reply] 0.0012

Continuing:
[ask] # lookup: koff of P1B4 (IgG format) (antibody, V domains shown, IgG format, captured by anti-human Fc) VH: QVQLVQSGAEVKKPGSSVKVSCKASGGVFSRYALSWVRQAPGQGLEWMGGIIPMLGFANYAQKFQGRVTITADESTSTAYMELSSLRSEDTAVYYCATLDFGALDYWGQGTLVTVSS VL: EIVLTQSPGTLSLSPGERATLSCRASQSVPNEQLAWYQQKPGQAPRLLIYDASSRATGIPDRFSGSGSGTDFTLTISRLEPEDFAVYYCQQYGSPPLTFGQGTKVEIK
[reply] 0.0058

From: patent US20230059489A1
